Source listed as PubChem BioAssay AID463074.

Provide the reported AC50 of each item.
Tested on: HMLE_sh_eGFP viability, CellTiter-Glo luminescence, 72 h
methodSummary: cytotoxicity in HMLE control line with eGFP shRNA, dose response, counter-screen for HMLE_sh_ECad selective toxicity project, cell-based, HMLE_sh_eGFP, luminescence (AID 463074);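 also: counterscreen control line to flag general toxicity for the HMLE_sh_ECad screen; potency for loss of viability as luminescence drops below DMSO wells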

Provide measured AC50 value, entry: COc1ccc(Cn2c(SCc3ccccc3C)nc3cc(OC)c(OC)cc3c2=N)cc1
3.7 µM

Provide measured AC50 value, entry: S=c1[nH]nc(-c2ccccc2)n1/N=C/c1ccc(-c2ccccc2Cl)o1
5.93 µM

Provide measured AC50 value, entry: CCSc1ncc(/C=N/Nc2ccc(Cl)cc2)n1C
6.75 µM

Provide measured AC50 value, entry: O=C(/C=C/c1ccc(F)cc1)c1cc(Br)ccc1O
14.1 µM

Provide measured AC50 value, entry: COc1cc(NS(=O)(=O)c2ccc(N/C=C(\C#N)c3nc4cc(Cl)ccc4o3)cc2)nc(OC)n1
7.54 µM

Provide measured AC50 value, entry: COc1ccc(Oc2c(Cl)cnn(-c3ccc(Cl)c(Cl)c3)c2=O)cc1
3.44 µM

Provide measured AC50 value, entry: Cc1ccc(Sc2c([N+](=O)[O-])c(=O)n(C)c3ccccc23)cc1
7.05 µM

Provide measured AC50 value, entry: Cc1ccc(NS(=O)(=O)c2cc([N+](=O)[O-])ccc2NNC(=S)Nc2cc(C)ccc2C)c(C)c1
2.6 µM

Provide measured AC50 value, entry: CN(C)CCOc1ccc(-c2c(-c3ccsc3)sc3ccccc23)cc1
3.04 µM

Provide measured AC50 value, entry: O=C1[C@@H]2Cc3c([nH]c4ccccc34)C(c3cccc(Br)c3)N2C(=O)CN1C1CCN(Cc2ccccc2)CC1 (some centres not stated)
7.12 µM

Provide measured AC50 value, entry: COc1ccc(NC(=O)c2cc3ccc(O)cc3o/c2=N\O)cc1
9.36 µM

Provide measured AC50 value, entry: CC1(C)CC[C@]2(CO)CC[C@]3(C)C(=CCC4[C@@]5(C)CC[C@H](O)[C@@](C)(CO)C5CC[C@]43C)[C@@H]2C1 (some centres not stated)
3.97 µM

* * *

System: HMLE_sh_eGFP viability, CellTiter-Glo luminescence, 72 h
methodSummary: cytotoxicity in HMLE control line with eGFP shRNA, dose response, counter-screen for HMLE_sh_ECad selective toxicity project, cell-based, HMLE_sh_eGFP, luminescence (AID 463074);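 also: counterscreen control line to flag general toxicity for the HMLE_sh_ECad screen; potency for loss of viability as luminescence drops below DMSO wells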
readoutType: AC50

Enter recorded AC50 with HMLE_sh_eGFP viability, CellTiter-Glo luminescence, 72 h for O=C(Nc1ccccc1)C1=C[C@@H](c2ccc(C(F)(F)F)cc2)C[C@@H](OCc2ccc(CO)cc2)O1 here.
7.43 µM

Enter recorded AC50 with HMLE_sh_eGFP viability, CellTiter-Glo luminescence, 72 h for COc1ccc2nc(C)cc(SCC(=O)N/N=C/c3cccc4ccccc34)c2c1 here.
1.86 µM

Enter recorded AC50 with HMLE_sh_eGFP viability, CellTiter-Glo luminescence, 72 h for CCC(C)Sc1ccc(-c2nc3cnccn3c2NC2CCCCC2)cc1 (centres undefined) here.
3.73 µM

Enter recorded AC50 with HMLE_sh_eGFP viability, CellTiter-Glo luminescence, 72 h for Cc1c(CCOC(=O)C2C3CC4CC(C3)CC2C4)sc[n+]1CC(=O)c1ccc(Br)cc1 (centres undefined) here.
2.44 µM

Enter recorded AC50 with HMLE_sh_eGFP viability, CellTiter-Glo luminescence, 72 h for CC(C)N(CCC(=O)c1ccc2ccccc2c1)Cc1ccccc1 here.
9.86 µM

Enter recorded AC50 with HMLE_sh_eGFP viability, CellTiter-Glo luminescence, 72 h for Cc1ccc(OC/C(O)=C(\C#N)c2nc3ccccc3s2)cc1 here.
6.81 µM

Enter recorded AC50 with HMLE_sh_eGFP viability, CellTiter-Glo luminescence, 72 h for COc1ccc(-c2nc(NC(=O)c3cc(C(C)(C)C)nn3C)sc2C)cc1 here.
14.2 µM

Enter recorded AC50 with HMLE_sh_eGFP viability, CellTiter-Glo luminescence, 72 h for O=C(N/N=C/c1ccc(Cl)c([N+](=O)[O-])c1)c1cc(-c2ccccc2)nc2ccccc12 here.
4.52 µM

Enter recorded AC50 with HMLE_sh_eGFP viability, CellTiter-Glo luminescence, 72 h for CCC(C)c1ccc(NC(=O)C2CC3CCC2C3)cc1 (centres undefined) here.
4.98 µM
